- Test system: HT-29 human colorectal adenocarcinoma cell line
- test-details: Cytotoxicity, Trypan blue exclusion test, HT-29
- Format: cell-based
- condition-label: HT-29, 24 h, Trypan blue exclusion, mean ± SD of two independent experiments
property-measured: IC50

IN: Any idea what IC50 was measured for Clc1ccc(Nc2c(-c3ccco3)nc3ccccn23)cc1 [Compound 13] ?
OUT: > 45 µM

Next:
IN: Tell me the measured IC50 of COc1cccc(-c2nc3ccccn3c2Nc2ccc(Cl)cc2)c1OC , please.
OUT: > 200 µM

IN: Next entry: Clc1ccc(Nc2c(-c3ccsc3)nc3ccccn23)cc1
OUT: > 200 µM

IN: Next: Fc1ccc(-c2nc3ccccn3c2Nc2ccc(Cl)cc2)c(F)c1 [Compound 18]
OUT: < 15 µM

IN: And COc1ccc(-c2nc3ccccn3c2Nc2ccc(Cl)cc2)c(OC)c1OC ?
OUT: > 200 µM

IN: Quick one: COc1ccc(-c2nc3ccccn3c2Nc2ccc(Cl)cc2)cc1OCc1ccccc1
OUT: > 200 µM
